Hey, just so you know, these numbers are from patent US8268848B2.

Molecular target: OX2 (Homo sapiens)
Experiment: Measurement of orexin receptor-binding ability ([125I]-OX-A, cell membranes, OX2)
Parameters: expressed in transfected cells; host or cells: CHO cells (membrane preparation)
Conditions: membranes of recombinant CHO cells expressing OX2, 0.2 nM [125I]-OX-A; read-out: OX2 (IC50)
Procedure: 1. Measurement of Orexin Receptor-Binding Ability The assay was carried out using a 96-well Wheat Germ Agglutinin Flash Plate (PerkinElmer). The volume in a single assay well was 100 ul, and the composition of the reaction solution was as follows: […] Cell membranes were prepared from recombinant CHO cells that expressed OX2 or OX1. […] Finally, the radioactivity of each well was measured using a scintillation counter (TopCount, PerkinElmer).
# Lookup of reported pIC50 keyed by entry
Remember, pIC50 is on a log scale: it is -log10 of the molar concentration.

Cc1ncc(OC[C@@]2(c3ccccc3)C[C@H]2C(=O)Nc2ccnc(C#N)c2)c(C)n1 8.10
Cc1ncc(OC[C@@]2(c3ccc(F)cc3)C[C@H]2C(=O)Nc2ccc(F)c(F)c2)c(C)n1 7.72
CCc1nc(C)ncc1OC[C@@]1(c2cccc(F)c2)C[C@H]1c1nc2cnccc2[nH]1 8.00
Cc1ncc(OC[C@@]2(c3ccccc3)C[C@H]2C(=O)Nc2ccc(F)c(F)c2)c(C)n1 7.92
Cc1ncc(OC[C@@]2(c3ccccc3)C[C@H]2c2nc3cnccc3[nH]2)c(C)n1 7.05

[Q] Dear colleague, I am looking for the recorded pIC50 of the following molecule: `COCc1nc(C)ncc1OC[C@@]1(c2ccccc2)C[C@H]1C(=O)Nc1ccc(Cl)cn1`
[A] 8.48

[Q] Sample `Cc1ncc(OC[C@@]2(c3ccccc3)C[C@H]2C(=O)Nc2cccc(C(F)(F)F)c2)c(C)n1` — what was its pIC50?
[A] 8.15

[Q] What measured pIC50 goes with `Cc1ncc(OC[C@@]2(c3ccccc3)C[C@H]2C(=O)Nc2ccc(Cl)cc2)c(C)n1` ?
[A] 7.23

[Q] Which measured pIC50 value corresponds to `Cc1ncc(OC[C@@]2(c3cccc(C#N)c3)C[C@H]2C(=O)Nc2ccc(F)cc2)c(C)n1` ?
[A] 7.68

[Q] Need pIC50, item `COc1cc(NC(=O)[C@@H]2C[C@@]2(COc2cnc(C)nc2C)c2ccccc2)ccn1`
[A] 7.51

[Q] What measured pIC50 goes with `Cc1ncc(OC[C@@]2(c3ccccc3)C[C@H]2C(=O)Nc2ccccc2)c(C)n1` ?
[A] 7.82

[Q] For the molecule shown here, `Cc1ncc(CC[C@@]2(c3ccccc3)C[C@H]2C(=O)Nc2cc(C)c(F)cn2)c(C)n1` , give the reported pIC50.
[A] 7.47

---

Listing: log10 of IC50 of selected compounds
Target: OX2 (Homo sapiens)
Experiment: Measurement of orexin receptor-binding ability ([125I]-OX-A, cell membranes, OX2)
Set-up: expressed in transfected cells; host or cells: CHO cells (membrane preparation)
Conditions: membranes of recombinant CHO cells expressing OX2, 0.2 nM [125I]-OX-A; read-out: OX2 (IC50)
Protocol: 1. Measurement of Orexin Receptor-Binding Ability The assay was carried out using a 96-well Wheat Germ Agglutinin Flash Plate (PerkinElmer). The volume in a single assay well was 100 ul, and the composition of the reaction solution was as follows: […] Cell membranes were prepared from recombinant CHO cells that expressed OX2 or OX1. […] Finally, the radioactivity of each well was measured using a scintillation counter (TopCount, PerkinElmer).
The base-10 logarithm of IC50, taken with IC50 in nM, is what appears here.

compound	value observed
O=C(Nc1ccc(F)cn1)[C@@H]1C[C@@]1(COc1c[nH]c(=O)nc1C(F)(F)F)c1cc(F)cc(F)c1 [Example 291]	1.69

[Q] What log10 of IC50 value was documented for this compound, Cc1ncc(OC[C@@]2(c3cccc(F)c3)C[C@H]2c2nc3ccccc3c(=O)[nH]2)c(C)n1 [Example 310] ?
[A] 1.11

[Q] Fill in the blank: the reported log10 of IC50 of COCc1nc(C)ncc1OC[C@@]1(c2ccc(F)cc2)C[C@H]1C(=O)Nc1ccc(F)cc1F [Example 209] is ____.
[A] 1.68

[Q] What value of log10 of IC50 has been reported for the following compound? COc1cc(F)cc([C@]2(COc3cnc(C)nc3C)C[C@H]2C(=O)Nc2ccc(Cl)cn2)c1 [Example 255]
[A] 1.43

[Q] Requested read-out: log10 of IC50. Entry: Cc1ncc(OC[C@@]2(c3ccccc3)C[C@H]2C(=O)Nc2ccnc(F)c2)c(C)n1 [Example 18]
[A] 1.52

[Q] # log10 of IC50 lookup, item Cc1ncc(OC[C@@]2(c3ccccc3)C[C@H]2C(=O)Nc2cc(C)c(Cl)cn2)c(C)n1 [Example 45]
[A] 0.79

[Q] What value of log10 of IC50 has been recorded for this entry: COCc1nc(C)ncc1OC[C@@]1(c2ccccc2)C[C@H]1C(=O)Nc1ccc(F)cc1F [Example 146]
[A] 1.57

[Q] What value of measured log10 of IC50 is listed for Cc1cccc(C2(COc3cnc(C)nc3C)CC2C(=O)Nc2cccnc2)c1 (stereo not shown) [Example 177] ?
[A] 1.92

[Q] For the compound Cc1ncc(OCC2(c3cccnc3)CC2C(=O)Nc2ccc(Cl)cn2)c(C)n1 (stereo not shown) [Example 260] , what log10 of IC50 is on record?
[A] 1.85

[Q] Quick one: log10 of IC50 for Cc1ncc(NC[C@@]2(c3cccc(F)c3)C[C@H]2C(=O)Nc2ccc(F)cn2)c(C(F)(F)F)n1 [Example 302] ?
[A] 0.48

[Q] Given COc1cc(NC(=O)[C@@H]2C[C@@]2(COc2cnc(C)nc2C)c2ccccc2)cnc1F [Example 327] , state its recorded log10 of IC50.
[A] 0.48

[Q] Can you share its log10 of IC50? I mean this compound: Cc1ncc(OC[C@@]2(c3ccccc3)C[C@H]2C(=O)Nc2nc(C)c(C)s2)c(C)n1 [Example 4]
[A] 1.58

---

test system: mice (C57BL/6NCrlCrLj); experiment: Sleep experiment (EEG/EMG) in mice; type: in vivo; settings: po, 10 mg/kg, 3 h
# reported Sleep extended time 10 mg/kg (min/3 hrs); entries follow
Value expressed in min/3 hrs; do not type the unit.

Cc1ncc(OC[C@@]2(c3ccc(F)c(F)c3)C[C@H]2C(=O)Nc2cc(C)c(F)cn2)c(C)n1 48.4
CCc1nc(C)ncc1OC[C@@]1(c2ccccc2)C[C@H]1C(=O)Nc1ccc(C#N)cn1 11.5
COc1cc(NC(=O)[C@@H]2C[C@@]2(COc2cnc(C)nc2C)c2ccccc2)ncc1F 22.7
COCc1nc(C)ncc1OC[C@@]1(c2ccccc2)C[C@H]1C(=O)Nc1ccc(F)cn1 28.7
COCc1nc(C)ncc1OC[C@@]1(c2cccc(F)c2)C[C@H]1C(=O)Nc1cc(C)c(F)cn1 36.2
Cc1ncc(OC[C@@]2(c3ccccc3)C[C@H]2C(=O)Nc2cc(C)c(Cl)cn2)c(C)n1 15.2
Cc1ncc(OC[C@@]2(c3ccccc3)C[C@H]2C(=O)Nc2ccc(Cl)cn2)c(C)n1 19.0
CCc1nc(C)ncc1OC[C@@]1(c2ccccc2)C[C@H]1C(=O)Nc1ccc(Cl)cn1 26.7
Cc1ncc(OC[C@@]2(c3cc(F)cc(F)c3)C[C@H]2C(=O)Nc2cc(C)c(F)cn2)c(C)n1 30.0

Attention now turns to another entry.
[Q] Item `Cc1ncc(OC[C@@]2(c3cc(F)cc(F)c3)C[C@H]2C(=O)Nc2ccc(F)cc2)c(C)n1` has what recorded Sleep extended time 10 mg/kg (min/3 hrs)?
[A] 24.2

---

target: OX2 (Homo sapiens, UniProt O43614); assay: Measurement of orexin receptor-binding ability ([125I]-OX-A, cell membranes, OX2); set-up: expressed in transfected cells; host or cells: CHO cells (membrane preparation); conditions: OX2 (IC50) nM, membranes of recombinant CHO cells expressing OX2, 0.2 nM [125I]-OX-A
Sequence (O43614 whole entry): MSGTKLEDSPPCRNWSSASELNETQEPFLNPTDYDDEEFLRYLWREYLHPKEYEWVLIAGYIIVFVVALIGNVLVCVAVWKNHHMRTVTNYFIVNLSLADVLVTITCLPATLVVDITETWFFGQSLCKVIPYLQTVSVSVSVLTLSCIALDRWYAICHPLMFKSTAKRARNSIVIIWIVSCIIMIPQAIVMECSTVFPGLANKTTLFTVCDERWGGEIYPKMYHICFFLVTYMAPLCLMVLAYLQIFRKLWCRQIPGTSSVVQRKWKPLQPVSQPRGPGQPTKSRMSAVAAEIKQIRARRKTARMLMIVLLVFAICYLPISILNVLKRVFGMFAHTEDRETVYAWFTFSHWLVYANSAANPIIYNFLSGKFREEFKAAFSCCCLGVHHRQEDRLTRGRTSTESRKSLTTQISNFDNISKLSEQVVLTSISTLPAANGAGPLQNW
readout kind: IC50
Could you write the number and then its unit?

Example entries and their recorded answers appear below.
compound	IC50
COCc1nc(C)ncc1OC[C@@]1(c2ccc(F)cc2)C[C@H]1C(=O)Nc1cc(C)c(F)cn1 [Example 205]	6 nM
Cc1ncc(OC[C@@]2(c3ccc(F)c(F)c3)C[C@H]2C(=O)Nc2ccc(C#N)cn2)c(C)n1 [Example 167]	10 nM
CCc1nc(C)ncc1OC[C@@]1(c2ccccc2)C[C@H]1C(=O)Nc1ccc(F)cn1 [Example 119]	5.2 nM
COCc1nc(C)ncc1OC[C@@]1(c2cccc(F)c2)C[C@H]1C(=O)Nc1ccc(C(F)(F)F)cn1 [Example 201]	4 nM
Cc1ncc(OC[C@@]2(c3ccccc3)C[C@H]2C(=O)Nc2ccc(F)cn2)c(C)n1 [Example 1]	6.8 nM
COCc1nc(C)ncc1OC[C@@]1(c2cccc(F)c2)C[C@H]1C(=O)Nc1ccc(C#N)cn1 [Example 200]	12 nM
Cc1ncc(OC[C@@]2(c3cccc(F)c3)C[C@H]2C(=O)Nc2ccnc(F)c2)c(C)n1 [Example 97]	21 nM

Turning now to a further record.
[Q] I would be grateful if you could share the reported IC50 for Cc1ncc(OC[C@@]2(c3cccc(F)c3)C[C@H]2C(=O)Nc2ncc(F)cc2O)c(C)n1 [Example 319] .
[A] 128 nM
